// provenance: ChEMBL document CHEMBL1126759

study system: Human immunodeficiency virus type 1 protease (Human immunodeficiency virus 1) (UniProt Q72874)
method notes: Tested for inhibitory concentration against spread of HIV-1 in MT-4 human T-lymphoid cells infected with IIIb isolate
Format: functional, cell-based
quantity measured: IC95 (µM)

1) CC(C)(C)NC(=O)[C@@H]1C[C@@H]2CCCC[C@@H]2CN1C[C@@H](O)[C@H](Cc1ccccc1)NC(=O)[C@@H](NC(=O)c1ccc2ccccc2n1)[C@H]1CCSC1    0.05
2) CC(C)(C)NC(=O)[C@@H]1C[C@@H]2CCCC[C@@H]2CN1C[C@@H](O)[C@H](Cc1ccccc1)NC(=O)[C@@H](NC(=O)c1cnc2ccccc2n1)[C@H]1CCOC1    0.012
3) CN1CCN(c2ncc(C(=O)N[C@H](C(=O)N[C@@H](Cc3ccccc3)[C@H](O)CN3C[C@H]4CCCC[C@H]4C[C@H]3C(=O)NC(C)(C)C)[C@H]3CCOC3)nc2Cl)CC1    0.012
4) COC(=O)c1nc(Cl)c(N[C@H](C(=O)N[C@@H](Cc2ccccc2)[C@H](O)CN2C[C@H]3CCCC[C@H]3C[C@H]2C(=O)NC(C)(C)C)[C@H]2CCOC2)nc1N    0.003
5) CC(C)(C)NC(=O)[C@@H]1C[C@@H]2CCCC[C@@H]2CN1C[C@@H](O)[C@H](Cc1ccccc1)NC(=O)[C@@H](NC(=O)c1ccc2ccccc2n1)[C@@H]1CCOC1    0.1
